- assayed.system: human serum albumin (Homo sapiens)
- Sequence (P02768 25-609): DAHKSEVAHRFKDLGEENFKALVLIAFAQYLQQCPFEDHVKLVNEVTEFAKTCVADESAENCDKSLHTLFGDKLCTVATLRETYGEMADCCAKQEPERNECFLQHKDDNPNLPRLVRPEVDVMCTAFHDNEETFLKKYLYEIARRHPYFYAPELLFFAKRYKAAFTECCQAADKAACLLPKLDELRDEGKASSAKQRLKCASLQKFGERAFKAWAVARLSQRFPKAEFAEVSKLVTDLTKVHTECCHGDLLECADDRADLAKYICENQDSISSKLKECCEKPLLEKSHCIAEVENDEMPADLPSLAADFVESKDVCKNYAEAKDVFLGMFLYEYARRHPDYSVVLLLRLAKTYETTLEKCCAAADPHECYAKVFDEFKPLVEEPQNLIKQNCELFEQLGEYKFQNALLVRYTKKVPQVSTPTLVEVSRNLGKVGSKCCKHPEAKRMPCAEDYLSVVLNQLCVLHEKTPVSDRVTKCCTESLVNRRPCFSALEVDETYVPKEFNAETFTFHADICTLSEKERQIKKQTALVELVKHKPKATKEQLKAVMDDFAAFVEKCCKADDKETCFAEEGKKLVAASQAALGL
- procedure.summary: fluorescence polarization, direct titration of dye with protein
measured.quantity: pKd
Would you please state pKd, meaning minus log10 of the concentration in mol/L, as a bare number?

In the examples that follow, each entry is paired with its recorded pKd.
>>> observed_measurement("CN1/C(=C/C=C/C=C/C2=[N+](CCCCCC(=O)O)c3ccccc3C2(C)C)C(C)(C)c2ccccc21")
4.35
>>> observed_measurement("N=c1ccc2c(-c3ccc(C(=O)O)cc3C(=O)O)c3ccc(N)c(S(=O)(=O)O)c3oc-2c1S(=O)(=O)O")
3.10
>>> observed_measurement("CN1/C(=C/C=C/C=C/C2=[N+](CCCCCC(=O)O)c3ccc(S(=O)(=O)O)cc3C2(C)C)C(C)(C)c2cc(S(=O)(=O)O)ccc21")
3.25

Query: Which measured pKd belongs to O=C(O)c1ccccc1-c1c2ccc(=O)cc-2oc2cc(O)ccc12 , tested on human serum albumin (Homo sapiens)?
Reply: 3.86

###

- assayed.system: transferrin (Homo sapiens, UniProt P02787)
- Construct: gene TF; purchased from Sigma Aldrich
- Sequence (P02787 20-698): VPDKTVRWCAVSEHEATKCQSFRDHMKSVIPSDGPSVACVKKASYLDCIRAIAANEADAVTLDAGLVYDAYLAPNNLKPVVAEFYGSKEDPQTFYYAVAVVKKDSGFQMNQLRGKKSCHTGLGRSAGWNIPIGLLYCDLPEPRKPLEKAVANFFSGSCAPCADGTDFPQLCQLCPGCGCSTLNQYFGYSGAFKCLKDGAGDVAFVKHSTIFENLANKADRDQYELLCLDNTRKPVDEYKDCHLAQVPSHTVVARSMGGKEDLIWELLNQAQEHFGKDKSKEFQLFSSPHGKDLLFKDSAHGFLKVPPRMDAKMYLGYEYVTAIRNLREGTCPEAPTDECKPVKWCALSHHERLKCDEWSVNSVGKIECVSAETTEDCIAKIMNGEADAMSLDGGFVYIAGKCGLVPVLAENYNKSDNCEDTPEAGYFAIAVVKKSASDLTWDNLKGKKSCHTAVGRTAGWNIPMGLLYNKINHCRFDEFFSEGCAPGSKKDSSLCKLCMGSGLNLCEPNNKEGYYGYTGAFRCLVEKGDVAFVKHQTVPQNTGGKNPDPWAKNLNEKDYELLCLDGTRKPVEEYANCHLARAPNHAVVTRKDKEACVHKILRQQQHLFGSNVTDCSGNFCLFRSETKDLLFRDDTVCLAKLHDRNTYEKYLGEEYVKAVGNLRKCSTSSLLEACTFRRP
- procedure.summary: fluorescence polarization, direct titration of dye with protein
- Format: binding
measured.quantity: pKd
Would you please state pKd, meaning minus log10 of the concentration in mol/L, as a bare number?

Query: Give the measured pKd of O=C(O)c1ccccc1-c1c2ccc(=O)cc-2oc2cc(O)ccc12 .
Reply: 3.30
